Collected CC50 values appear next to each entry.
Tested on: PANC-1
Assay: Inhibition of cells growth by colorimetric (SRB) assay, PANC-1
Settings: Homo sapiens, PANC-1, 48 h, read-out: PANC-1 LC50, SRB assay, 48 hours exposure
Numeric only. Scale: µM

INSERT INTO measurements (molecule, result_type, observed_value) VALUES
  ('CSc1nccc(-c2c3cccnc3n3c(NC(C)=O)nccc23)n1', 'CC50', 28.5);

Continue with the molecule presented below.
Can you look up CC50 on PANC-1 for `CSc1nccc(-c2c3cccnc3n3c(N(C(C)=O)C(C)=O)nccc23)n1` ?
17.6

----------
Test system: LNCaP
Test: Inhibition of cells growth by colorimetric (SRB) assay, LNCaP
Settings: Homo sapiens, LNCaP, 48 h, read-out: GI50 LN-caP, SRB assay, 48 hours exposure
result_type: GI50 (µM)
Numeric only. Scale: µM

Some molecules with recorded GI50:
INSERT INTO measurements (mol, assayed_target, readout_units, observed_value) VALUES
  ('CSc1nccc(-c2c3cccnc3n3ccccc23)n1', 'LNCaP', 'µM', 6.84),
  ('COc1nccc(-c2c3c(O)ccnc3n3c(N)nccc23)n1', 'LNCaP', 'µM', 5.48),
  ('Cl.Nc1nccc2c(-c3ccncn3)c3cccnc3n12', 'LNCaP', 'µM', 0.0502);

Continue with the molecule presented below.
Need GI50 of `CSc1nccc(-c2c3c(Cl)ccnc3n3c(N)nccc23)n1` , thanks.
3.38

----------
System: HMEC1
Assay: Inhibition of cells growth by colorimetric (SRB) assay, HMEC1
Conditions: read-out: LC50 H-MEC-1; SRB assay, 48 hours exposure
Collected CC50 values appear next to each entry.
Numeric only. Scale: nM

Some compounds with recorded CC50:
INSERT INTO assay_data (compound, observed_value) VALUES
  ('Cc1ccc2c(-c3ccnc(N)n3)c3ccnc(N)n3c2n1.Cl', 1310),
  ('COc1nccc(-c2c3cccnc3n3c(N)nccc23)n1', 1560);

Can you look up CC50 on HMEC1 for `Cc1ccc2c(-c3ccnc(N)n3)c3ccnc(N)n3c2n1` ?
2670

Can you look up CC50 on HMEC1 for `COc1cccc(-c2c3cccnc3n3c(N)nccc23)c1` ?
34400

----------
System: SK-MEL-28
Assay: Inhibition of cells growth by colorimetric (SRB) assay, SK-MEL-28
Details: read-out: LC50 MEL-28; SRB assay, 48 hours exposure
Collected CC50 values appear next to each entry.
Numeric only. Scale: µM

INSERT INTO measurements (compound, assayed_target, observed_value) VALUES
  ('Nc1nccc(-c2c3cc4ccccc4nc3n3c(N)nccc23)n1 [Compound 19a]', 'SK-MEL-28', 13.1),
  ('Cl.Nc1nccc2c(-c3ccncn3)c3c(O)ccnc3n12 [Compound 101]', 'SK-MEL-28', 21.9),
  ('Nc1nccc(-c2c3c(N)ccnc3n3c(N)nccc23)n1 [Compound 90]', 'SK-MEL-28', 3.45);

Continue with the compound presented below.
Need CC50 of CCOc1nccc(-c2c3cccnc3n3c(N)nccc23)n1 [Compound 77] , thanks.
2.16

----------
Tested on: PANC-1
Assay: Inhibition of cells growth by colorimetric (SRB) assay, PANC-1
Conditions: Homo sapiens, PANC-1, 48 h, read-out: PANC-1 GI50, SRB assay, 48 hours exposure
# strict inequality: GI50 < 5 µM yields met, everything else yields not met

INSERT INTO results (compound, assayed_target, class_name) VALUES
  ('Cl.Nc1nccc(-c2c3c(O)ccnc3n3c(N)nccc23)n1 [Compound 54]', 'PANC-1', 'met'),
  ('CSc1nccc(-c2c3c(Cl)ccnc3n3c(N)nccc23)n1.Cl [Compound 108]', 'PANC-1', 'met'),
  ('CS(=O)(=O)c1nccc(-c2c3cccnc3n3c(N)nccc23)n1 [Compound 73]', 'PANC-1', 'not met');

A record lists CSc1nccc(-c2c3cccnc3n3c(N)nccc23)n1.Cl [Compound 68] . Is its GI50 below 5 µM?
met

A record lists CSc1nccc(-c2c3cc4ccccc4nc3n3c(N)nccc23)n1 [Compound 18a] . Is its GI50 below 5 µM?
not met

A record lists Cl.Nc1nccc(-c2c3c(Cl)ccnc3n3c(N)nccc23)n1 [Compound 83] . Is its GI50 below 5 µM?
met

A record lists CSc1nccc(-c2c3c(N)ccnc3n3c(N)nccc23)n1.Cl [Compound 93] . Is its GI50 below 5 µM?
met

A record lists Nc1nccc(-c2c3cccnc3n3c(N)nccc23)n1 [Deoxyvariolin 4, deoxyvariolin B, reference compound] . Is its GI50 below 5 µM?
met

A record lists CSc1nccc(-c2c3ccc(C)nc3n3c(N)nccc23)n1 [Compound 43] . Is its GI50 below 5 µM?
not met

A record lists CSc1nccc(-c2c3cccnc3n3c(N(C(C)=O)C(C)=O)nccc23)n1 [Compound 26] . Is its GI50 below 5 µM?
met
